# HIV-1 protease (Human immunodeficiency virus type 1 group M subtype B): pIC50 values follow
pIC50: −log10 of the molar value.

See these solved cases before continuing.
CC(C)(C)NC(=O)c1ccccc1CC[C@@H](O)[C@H](Cc1ccccc1)NC(=O)c1ccc(C(=O)c2ccccc2)cc1 [Example 001047]: 5.00 to 7.00
Cc1c(O)cccc1OCC(=O)N[C@@H](Cc1ccccc1)[C@H](O)CCc1ccccc1C(=O)NC(C)(C)C [Example 001246]: > 7.00
CC(C)(C)NC(=O)c1ccccc1CC[C@@H](O)[C@H](Cc1ccccc1)NS(=O)(=O)c1cccc2nonc12 [Example 001012]: 5.00 to 7.00
CC(C)(C)NC(=O)c1ccccc1CC[C@@H](O)[C@H](Cc1ccccc1)NS(=O)(=O)c1cccc(Cl)c1Cl [Example 001010]: < 5.00
CC(C)CNC(=O)c1ccccc1CC[C@@H](O)[C@H](Cc1ccccc1)NC(=O)OC(C)(C)C [Example 000156]: > 7.00

# next compound below
Lab note: record pIC50 of CC(C)(C)NC(=O)c1ccccc1CC[C@@H](O)[C@H](Cc1ccccc1)NC(=O)N(c1ccccc1)c1ccccc1 [Example 001006] tested on HIV-1 protease (Human immunodeficiency virus type 1 group M subtype B).
5.00 to 7.00
